Answer each item with its documented pEC50.
Molecular target: PCSK9 (Homo sapiens, UniProt Q8NBP7, G670E/V474I)
Sequence (Q8NBP7 with tags, fused parts or gaps V474I/G670E): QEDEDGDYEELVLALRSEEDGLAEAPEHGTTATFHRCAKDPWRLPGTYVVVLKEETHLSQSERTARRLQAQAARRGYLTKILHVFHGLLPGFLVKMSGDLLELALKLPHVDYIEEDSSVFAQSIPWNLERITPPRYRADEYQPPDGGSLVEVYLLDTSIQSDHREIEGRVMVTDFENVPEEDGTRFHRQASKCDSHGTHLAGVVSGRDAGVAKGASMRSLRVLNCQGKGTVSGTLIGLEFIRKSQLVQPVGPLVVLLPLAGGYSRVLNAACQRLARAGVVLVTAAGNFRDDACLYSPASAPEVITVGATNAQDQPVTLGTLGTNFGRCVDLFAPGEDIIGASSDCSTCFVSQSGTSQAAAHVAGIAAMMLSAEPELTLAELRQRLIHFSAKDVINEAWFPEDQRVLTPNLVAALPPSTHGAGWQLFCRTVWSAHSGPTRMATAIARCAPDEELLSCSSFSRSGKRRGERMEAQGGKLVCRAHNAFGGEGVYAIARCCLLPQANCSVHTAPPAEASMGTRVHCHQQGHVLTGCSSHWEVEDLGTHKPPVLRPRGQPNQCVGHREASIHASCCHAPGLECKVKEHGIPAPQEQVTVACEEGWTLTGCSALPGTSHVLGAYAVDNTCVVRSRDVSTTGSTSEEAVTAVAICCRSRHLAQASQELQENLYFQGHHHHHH
Assay: Assay 3 PCSK9 LDL-C uptake assay in HepG2 cells
Details: 125 nM PCSK9, pHrodo Red-LDL, read-out: Assay 3 LDL uptake potency
# pEC50 = -log10(concentration in molar units)

pEC50 of COc1cccn(-c2ccc(N[C@H]3CC[C@H](Nc4ncc(C5CC5)nn4)C3)nc2)c1=O [Example 64] on PCSK9 (Homo sapiens, UniProt Q8NBP7, G670E/V474I)? 6.70

Subsequent entry: Cc1cccn(-c2ccc(N[C@H]3CC[C@H](Nc4ncc(C5CC5)nn4)C3)nc2)c1=O [Example 66] 7.00

Subsequent entry: COc1ccnn(-c2ccc(N[C@H]3CC[C@H](Nc4ncc(C)nn4)C3)nc2)c1=O [Example 220] 6.70

Subsequent entry: Cc1cnc(N[C@H]2CC[C@H](Nc3ccc(-n4cccc(C(F)(F)F)c4=O)cn3)C2)nn1 [Example 135] 7.00

====

Answer each item with its documented pIC50.
Target: GSK3β (Glycogen synthase kinase-3 beta) (Homo sapiens, UniProt P49841)
Sequence (P49841 whole entry): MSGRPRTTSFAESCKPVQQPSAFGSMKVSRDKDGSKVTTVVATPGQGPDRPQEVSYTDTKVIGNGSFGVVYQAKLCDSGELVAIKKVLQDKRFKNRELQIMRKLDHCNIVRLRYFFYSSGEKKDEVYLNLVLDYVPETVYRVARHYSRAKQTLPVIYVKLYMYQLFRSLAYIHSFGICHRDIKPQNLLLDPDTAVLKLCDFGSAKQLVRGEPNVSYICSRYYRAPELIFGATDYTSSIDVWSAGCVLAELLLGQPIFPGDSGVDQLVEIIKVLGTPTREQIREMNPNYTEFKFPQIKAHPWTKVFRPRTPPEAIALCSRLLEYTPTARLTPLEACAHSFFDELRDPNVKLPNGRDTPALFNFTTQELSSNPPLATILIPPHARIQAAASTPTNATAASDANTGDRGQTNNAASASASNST
pIC50: −log10 of the molar value.

Return reported pIC50; argument: Cc1ccc(=O)n(-c2ccc(N[C@H]3CC[C@H](Nc4ncc(C(=O)NC5COC5)nn4)C3)nc2)c1 < 5.00

Subsequent entry: Cc1cnc(N[C@H]2CC[C@H](Nc3ccc(-n4cccc(-c5cnn(C)c5)c4=O)cn3)C2)nn1 < 5.00

Subsequent entry: Cc1cnc(N[C@H]2CC[C@H](Nc3ccc(-n4cccc(F)c4=O)cn3)C2)nn1 5.45

Subsequent entry: Cc1cnc(N[C@H]2CC[C@H](Nc3ccc(-n4nccc(Cl)c4=O)cn3)C2)nn1 < 5.00

Subsequent entry: O=C(NCCO)c1cnc(N[C@H]2CC[C@H](Nc3ccc(-n4ccccc4=O)cn3)C2)nn1 < 5.00

Subsequent entry: C#CCNC(=O)c1cnc(N[C@H]2CC[C@H](Nc3ccc(-n4ccccc4=O)cn3)C2)nn1 < 5.00

Subsequent entry: COc1ccc(=O)n(-c2ccc(N[C@H]3CC[C@H](Nc4ncc(C(=O)NC5COC5)nn4)C3)nc2)c1 5.41

Subsequent entry: O=c1ccc(Cl)cn1-c1ccc(N[C@H]2CC[C@H](Nc3ncc(C4CC4)nn3)C2)nc1 5.19

====

Answer each item with its documented pIC50.
Molecular target: potassium ion channel hERG (Homo sapiens)
Sequence (Q12809 whole entry): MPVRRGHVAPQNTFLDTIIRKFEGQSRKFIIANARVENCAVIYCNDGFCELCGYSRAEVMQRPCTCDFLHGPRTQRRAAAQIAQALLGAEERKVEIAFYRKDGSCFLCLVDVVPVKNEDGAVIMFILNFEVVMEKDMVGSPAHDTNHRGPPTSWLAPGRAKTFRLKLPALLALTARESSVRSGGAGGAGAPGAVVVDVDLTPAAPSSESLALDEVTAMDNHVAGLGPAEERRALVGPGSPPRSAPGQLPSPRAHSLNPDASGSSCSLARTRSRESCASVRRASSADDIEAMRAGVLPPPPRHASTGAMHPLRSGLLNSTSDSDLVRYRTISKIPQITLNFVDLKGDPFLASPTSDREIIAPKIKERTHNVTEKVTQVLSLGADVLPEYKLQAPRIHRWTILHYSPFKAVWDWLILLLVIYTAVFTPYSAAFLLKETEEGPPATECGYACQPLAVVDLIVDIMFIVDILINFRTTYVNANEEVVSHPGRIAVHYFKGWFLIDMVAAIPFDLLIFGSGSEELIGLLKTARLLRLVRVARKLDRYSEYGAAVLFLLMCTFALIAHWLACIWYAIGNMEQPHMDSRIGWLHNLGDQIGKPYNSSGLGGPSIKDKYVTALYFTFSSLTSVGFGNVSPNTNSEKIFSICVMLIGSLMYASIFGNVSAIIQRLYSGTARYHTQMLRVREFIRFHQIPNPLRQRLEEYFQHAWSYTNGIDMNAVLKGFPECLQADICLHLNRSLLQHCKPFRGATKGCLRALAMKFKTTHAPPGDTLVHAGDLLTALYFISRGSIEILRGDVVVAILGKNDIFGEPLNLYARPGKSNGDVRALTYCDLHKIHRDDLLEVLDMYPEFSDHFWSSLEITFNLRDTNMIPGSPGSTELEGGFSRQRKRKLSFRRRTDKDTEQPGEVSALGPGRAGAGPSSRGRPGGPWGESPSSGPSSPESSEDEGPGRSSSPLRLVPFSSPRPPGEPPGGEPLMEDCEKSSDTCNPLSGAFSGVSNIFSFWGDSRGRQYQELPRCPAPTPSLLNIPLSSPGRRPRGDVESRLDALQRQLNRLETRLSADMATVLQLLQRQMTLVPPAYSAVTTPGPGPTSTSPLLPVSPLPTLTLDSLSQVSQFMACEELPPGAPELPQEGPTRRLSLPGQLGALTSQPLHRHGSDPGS
Test: Assay 5 hERG assay (patch clamp, CHO cells over-expressing hERG)
Conditions: SyncroPatch 384PE, room temperature, geometric mean, read-out: Assay 5 (hERG Hu CHO if EPh CR-Syncro) GMean IC50
pIC50: −log10 of the molar value.

Return reported pIC50; argument: CCNC(=O)c1cnc(N[C@H]2CC[C@H](Nc3ccc(-n4ccccc4=O)cn3)C2)nn1 < 4.40

Subsequent entry: CCSc1cnc(N[C@H]2CC[C@H](Nc3ccc(-n4ccccc4=O)cn3)C2)nn1 4.58

Subsequent entry: Cc1cnc(NCC(CCO)CNc2ccc(-n3c(=O)ccc4ccccc43)cn2)nn1 (racemic) < 4.40

Subsequent entry: COc1c(C(=O)O)ccc(F)c1-c1ccc(N[C@H]2CC[C@H](Nc3ncc(C4CC4)nn3)C2)nc1 < 4.40

====

Molecular target: GSK3β (Glycogen synthase kinase-3 beta) (Homo sapiens, UniProt P49841)
Answer each item with its documented IC50.

Return reported IC50; argument: Cc1cnc(N[C@H]2CC[C@H](Nc3ccc(-n4c(C)nc(C)c4C#N)cn3)C2)nn1 > 10 µM

Subsequent entry: O=c1c(C(F)(F)F)cccn1-c1ccc(N[C@H]2CC[C@H](Nc3ncc(C4CC4)nn3)C2)nc1 > 10 µM

Subsequent entry: Cc1cnc(N[C@H]2CC[C@H](Nc3ccc(-n4nc(C)cc4C)cn3)C2)nn1 > 10 µM

Subsequent entry: COc1ccccc1-c1ccc(N[C@H]2CC[C@H](Nc3ncc(C)nn3)C2)nc1 > 10 µM

Subsequent entry: Cc1cnc(N[C@H]2CC[C@H](Nc3ccc(-n4cc(Cl)ccc4=O)cn3)C2)nn1 0.439 µM

Subsequent entry: Cn1cccc(-c2cnc(N[C@H]3CC[C@H](Nc4ncc(C5CC5)nn4)C3)nc2)c1=O > 10 µM

Subsequent entry: Cc1cnnc(N[C@H]2CC[C@H](Nc3ccc(-n4ccccc4=O)cn3)C2)n1 > 10 µM

Subsequent entry: O=C(NC1COC1)c1cnc(N[C@H]2CC[C@H](Nc3ccc(-n4cccc(C(F)(F)F)c4=O)cn3)C2)nn1 > 10 µM

Subsequent entry: C#CCN(C)C(=O)c1cnc(N[C@H]2CC[C@H](Nc3ccc(-n4ccccc4=O)cn3)C2)nn1 > 10 µM

Subsequent entry: CN(CCO)C(=O)c1cnc(N[C@H]2CC[C@H](Nc3ccc(-n4ccccc4=O)cn3)C2)nn1 > 10 µM

Subsequent entry: O=c1ccc(-c2c[nH]nn2)cn1-c1ccc(N[C@H]2CC[C@H](Nc3ncc(C4CC4)nn3)C2)nc1 6.17 µM

Subsequent entry: Cc1cnc(N[C@H]2CC[C@H](Nc3ccc(-n4nc(C)nc4C)cn3)C2)nn1 > 10 µM

Subsequent entry: O=c1ccccn1-c1ccc(N[C@H]2CC[C@H](Nc3ncc(Cl)nn3)C2)nc1 5.33 µM

Subsequent entry: Cc1cnc(N[C@H]2CC[C@H](Nc3ccc(-n4cc(-c5cn[nH]c5)ccc4=O)cn3)C2)nn1 7.66 µM

====

Target: PCSK9 (Homo sapiens, UniProt Q8NBP7)
Sequence (Q8NBP7 31-692): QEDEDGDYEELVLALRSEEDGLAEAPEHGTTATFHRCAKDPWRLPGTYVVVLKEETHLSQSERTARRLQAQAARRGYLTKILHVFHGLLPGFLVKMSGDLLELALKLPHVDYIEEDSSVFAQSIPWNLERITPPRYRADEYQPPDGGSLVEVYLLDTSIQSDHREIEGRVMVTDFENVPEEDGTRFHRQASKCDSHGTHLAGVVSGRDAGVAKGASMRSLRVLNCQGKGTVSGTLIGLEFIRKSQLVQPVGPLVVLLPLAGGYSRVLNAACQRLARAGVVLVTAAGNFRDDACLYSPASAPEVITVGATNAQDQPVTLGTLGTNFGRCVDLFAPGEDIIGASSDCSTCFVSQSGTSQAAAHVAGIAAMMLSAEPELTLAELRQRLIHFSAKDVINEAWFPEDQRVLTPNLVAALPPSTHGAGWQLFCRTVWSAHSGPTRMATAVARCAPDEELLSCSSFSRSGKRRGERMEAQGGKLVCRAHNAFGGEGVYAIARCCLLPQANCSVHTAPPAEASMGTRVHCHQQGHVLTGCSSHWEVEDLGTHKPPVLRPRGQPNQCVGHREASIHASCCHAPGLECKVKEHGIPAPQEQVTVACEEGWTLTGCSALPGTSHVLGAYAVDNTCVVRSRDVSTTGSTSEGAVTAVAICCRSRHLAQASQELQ
pKd: −log10 of the molar value.
Quick rule for you: pKd at 8 or higher means 1.0, lower means 0.0.

Textbook exercise: given the entry COc1cccn(-c2ccc(N[C@H]3CC[C@H](Nc4ncc(C)nn4)C3)nc2)c1=O , state whether its pKd is greater than or equal to 8. 1.0

Subsequent entry: O=c1ccncn1-c1ccc(N[C@H]2CC[C@H](Nc3ncc(C4CC4)nn3)C2)nc1 1.0

Subsequent entry: Cc1cnc(N[C@H]2CC[C@H](Nc3ccc(-n4cccc(C)c4=O)cn3)C2)nn1 1.0

Subsequent entry: CN(C)C(=O)c1cnc(N[C@H]2CC[C@H](Nc3ccc(-n4ccccc4=O)cn3)C2)nn1 0.0

Subsequent entry: Cc1cnc(N[C@H]2CC[C@H](Nc3ccc(-n4ncc5cccnc54)cn3)C2)nn1 0.0

Subsequent entry: Cc1cnc(N[C@H]2CC[C@H](Nc3ccc(-n4cccc(C(F)(F)F)c4=O)cn3)C2)nn1 1.0

Subsequent entry: Cc1nnc(N[C@H]2CC[C@H](Nc3ccc(-n4ccccc4=O)cn3)C2)nc1C 0.0

Subsequent entry: COc1ccc(=O)n(-c2ccc(N[C@H]3CC[C@H](Nc4ncc(C5CC5)nn4)C3)nc2)c1 1.0

Subsequent entry: O=C(NCCO)c1cnc(N[C@H]2CC[C@H](Nc3ccc(-n4ccccc4=O)cn3)C2)nn1 0.0

Subsequent entry: CCNC(=O)c1cnc(N[C@H]2CC[C@H](Nc3ccc(-n4ccccc4=O)cn3)C2)nn1 0.0

Subsequent entry: Cc1cnc(N[C@H]2CC[C@H](Nc3ccc(-n4cccc(Cl)c4=O)cn3)C2)nn1 1.0

====

Molecular target: PCSK9 (Homo sapiens, UniProt Q8NBP7, G670E/V474I)
Assay: biochemical
Binary label based on IC50 with cut-off 8 nM: below gives Satisfied, not below gives Not satisfied.

In plain terms, does O=c1cccnn1-c1cnc(N[C@H]2CC[C@H](Nc3ncc(C4CC4)nn3)C2)cn1 come in under 8 nM for IC50? Not satisfied

Subsequent entry: O=c1ccc(-c2nnn[nH]2)cn1-c1ccc(N[C@H]2CC[C@H](Nc3ncc(C4CC4)nn3)C2)nc1 Satisfied

Subsequent entry: O=C(NC1COC1)c1cnc(N[C@H]2CC[C@H](Nc3ccc(-n4cc(Cl)ccc4=O)cn3)C2)nn1 Satisfied

Subsequent entry: CC(=O)c1cnc(N[C@H]2CC[C@H](Nc3ccc(-n4ccccc4=O)cn3)C2)nn1 Not satisfied

Subsequent entry: Cc1cnc(N[C@H]2CC[C@H](Nc3ccc(-n4c(=O)n(C)c5ccc(C#N)nc54)cn3)C2)nn1 Satisfied

Subsequent entry: Cc1cnc(N[C@H]2CC[C@H](Nc3ccc(-n4cccc(-c5cnn(C)c5)c4=O)cn3)C2)nn1 Satisfied

Subsequent entry: Cc1cnc(N[C@H]2CC[C@H](Nc3ccc(-n4cc(OC(F)F)ccc4=O)cn3)C2)nn1 Not satisfied

====

Target: PCSK9 (Homo sapiens, UniProt Q8NBP7, G670E/V474I)
Assay: biochemical
Answer each item with its documented pIC50.
# pIC50 = -log10(concentration in molar units)

Return reported pIC50; argument: Cc1cnc(N[C@H]2CC[C@H](Nc3ccc(-n4nccc(C#N)c4=O)cn3)C2)nn1 8.31

Subsequent entry: O=c1c(C(F)(F)F)cccn1-c1ccc(N[C@H]2CC[C@H](Nc3ncc(C4CC4)nn3)C2)nc1 8.74

Subsequent entry: CN(C)C(=O)c1cnc(N[C@H]2CC[C@H](Nc3ccc(-n4ccccc4=O)cn3)C2)nn1 6.31

Subsequent entry: Cc1cnc(N[C@H]2CC[C@H](Nc3ccc(-c4nc(C)oc4C)cn3)C2)nn1 6.96

Subsequent entry: Cc1cnc(N[C@H]2CC[C@H](Nc3ccc(-n4ncc5cccnc54)cn3)C2)nn1 7.66

Subsequent entry: Cc1cnc(N[C@H]2CC[C@H](Nc3ccc(-n4cccc(OC(F)(F)F)c4=O)cn3)C2)nn1 8.40

Subsequent entry: O=C(NC1COC1)c1cnc(N[C@H]2CC[C@H](Nc3ccc(-n4cccc(C(F)(F)F)c4=O)cn3)C2)nn1 8.42

Subsequent entry: CCOC(=O)c1cnc(N[C@H]2CC[C@H](Nc3ccc(-n4ccccc4=O)cn3)C2)nn1 6.10
